Recorded values, source patent US20250027068.

- Target: pooled human IgG (human IgG1,2,3 and 4)
Exercise: state measured Enzyme Activity Endpoint Assay: Fc for each of the proteins provided.
One number for each entry, in ng/µL.

Below, 3 proteins whose answers are already recorded.
Problem: Please report the recorded Enzyme Activity Endpoint Assay: Fc for PRT-456 (protein) MITSVWTKGVTPPTDFIKGEDVFHAPYKAGQGWYDITKAFDGGDDLLCGAATAGNMLHWWFDQNKDQIEAYLKEHPEKQKINFNGEQMFDVKEAIDTKDDQTNSELFNYFKEKAFPYLSTKHLGVFPDHVLDMFINGYRLSLTNHGPTPVKEGSKDPRGGIFDAVFTRGDQSKLLTSRHDLKNKTLNEISQLIKQELTEGKALALSHTYANVRINHVINLWGADFDAEGNLEAIYVTDSDSNASIGMKKYFVGVNSAGKVAISAKEIEDDNIGAQVLGLFTLSTGQDIWNQTNLEHHHHHH .
Result: 497

Problem: What about PRT-512 (protein) MITSVWTKGVTPPAKFTQGEDVFHAPYVANQGWYDITKAFDGGDDLLCGAATAGNMLHWWFDQNKEEIEAYLKKHPEKQKIMFGDQELLDVRKVINTKDSQTNSALFNYFKDKAFPNLSARRLGVMPDLVLDMFINGYYLNVYKTQTTDVNRTYQTKDRRGGIFDAVFTRGDQSKLLTERHDLKNKTLKEISDLIKQELTEGKALGLSHTYANVRINHVINLWGADFDSNGNLEAIYVTDSDSNASIGMKKYFVGVNSAGKVAISAKEIKEDNIGAQVLGLFTLSTGQDIWNQTNLEHHHHHH ?
Result: 372

Problem: Similarly, PRT-317 (protein) MTITSVWTKGVTPPTPEDFRENNEDVLHAPYVANQGWYDITKTFDGKDNLLCGAATAGNMLHWWFDQNKEEIERYLKKHPEKQKIIFNNQELFDVKAAIDTKDSQTNSKLFNYFRDKAFPNLSARQLGVMPDLVLDMFINGYYLNLGKTQSTDVNRPYQDKDKRGGIFDAVFTRGDQTTLLTARHDLKNKGLNEISDLIKQELTEGKALALSHTYANVRINHVINLWGADFDAEGNLIAIYVTDSDANASIGMKKYFVGRNANGKVAISAKKIEGDNIGAQVLGLFTLSLGQDIWQKLS ?
Result: 453

Kindly consider the entry below.
Problem: Entry PRT-618 (protein) MQITSVWTKGVIPLTPEQFRYNNEDVIHAPYLPHQGWYDITKAFDGGDNLLCGAATAGNMLHWWFDQNKTEIEAYLSKYPEKQKIIFNNQELFDLRAAINTKDSQTNSQLFNYFRDKAFPNLSARQLGVMPDLVLDMFINGYYLNVFKTQSTDVNRPYQDRDKRGGIFDHVFGRGDQTTLLTARHDLKNGGLNDISTIIKQELQSGRALALSHTYANVSISHVINLWGADFNAEGNLEAIYVTDSDANSSIGMKKYYVGINAHGHVAISAKKIEGENIGAQVLGLFTLSSGKEIWQKLSLEHHHHHH : reported Enzyme Activity Endpoint Assay: Fc = ?
Result: 419
